Test system: HIV-1YU2
Run description: Viral infection assay, YU2 Env (wild type and mutants)
Assay type: cell-based
Settings: YU2 Env L111A
pIC50: −log10 of the molar value.
Endpoint: pIC50

| Compound | Numeric result |
| --- | --- |
| O=C(N/N=C/c1ccc(O)cc1)Nc1cccc2nsnc12 [Compound 18A] | 4.98 |

----------
System: HIV-1HXBc2
Run description: Viral infection assay, CXCR4-tropic virus, Cf2Th-CD4/CXCR4 cells
Format: cell-based
Settings: HIV-1HXBc2, Cf2Th cells expressing CD4 and CXCR4

| Compound | IC50 |
| --- | --- |
| O=C(N/N=C/c1ccc(O)cc1)Nc1cccc2nsnc12 [Compound 18A] | ~25 µM |
